What inhibition was measured for each of the following?
tested.on: Mitogen-activated protein kinase 3 (Homo sapiens) (UniProt P27361)
Sequence (P27361 whole entry): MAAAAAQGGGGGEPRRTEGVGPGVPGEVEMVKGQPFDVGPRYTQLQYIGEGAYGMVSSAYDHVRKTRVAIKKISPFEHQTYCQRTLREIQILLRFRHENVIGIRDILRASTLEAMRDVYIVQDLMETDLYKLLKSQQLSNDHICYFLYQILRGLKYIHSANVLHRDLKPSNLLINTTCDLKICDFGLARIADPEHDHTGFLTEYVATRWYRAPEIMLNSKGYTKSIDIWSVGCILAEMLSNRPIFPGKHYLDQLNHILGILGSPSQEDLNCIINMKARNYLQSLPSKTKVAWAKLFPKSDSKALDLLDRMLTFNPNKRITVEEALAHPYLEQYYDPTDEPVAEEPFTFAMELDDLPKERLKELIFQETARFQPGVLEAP
cond: at 1 µM;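 also: values are mean percent inhibition of MAPK3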
Give the number; % is assumed, so skip it.

The molecule "COC(=O)Nc1nc2cc(Oc3ccc(NC(=O)Nc4cccc(C(=O)O)c4)cc3)ccc2[nH]1" showed inhibition equal to 2.25

The molecule COc1ccc2cc(-c3c(-c4ccncc4)nc(-c4ccc([S+](C)[O-])cc4)n3C)ccc2c1 (stereo not given) showed inhibition equal to 0.18

The molecule "O=C1Nc2ccc(C(=O)c3ccco3)cc2C1=Cc1cc(Cl)c(O)c(Cl)c1" showed inhibition equal to 3.14

The molecule "c1cnn2ncc(-c3ccnc(Nc4ccc5c(c4)OCCO5)n3)c2c1" showed inhibition equal to 12

The molecule "COc1ccc(COc2ccc(Cc3cnc(N)nc3N)cc2OC)cc1" showed inhibition equal to 0.29

The molecule "CCc1cccc(NC(=O)Nc2ccc(Oc3ccc4nc(NC(=O)OC)[nH]c4c3)cc2)c1" showed inhibition equal to 2.79

The molecule "CCCN1CCC=C(c2ccc(Nc3nc(Nc4ccccc4C(N)=O)c4cc[nH]c4n3)c(C)c2)C1" showed inhibition equal to 11.3

The molecule "CS(=O)(=O)Nc1ccc(N/C=C2\C(=O)Nc3ccccc32)cc1" showed inhibition equal to -3.47

The molecule "O=C1NC(=O)C(N2CCc3ccccc32)=C1c1ccc(Cl)cc1" showed inhibition equal to 2.62

The molecule "COc1cc2ncn(-c3cc(OCc4ccccc4C(F)(F)F)c(C(N)=O)s3)c2cc1OC" showed inhibition equal to 3.77

Data provenance is ChEMBL document CHEMBL1961873.
